Source: patent EP4467141A1

# target.of.assay: IKBKB (IKK beta) (Homo sapiens)
# Construct: purchased Thermo Fisher Scientific
# Sequence (O14920 whole entry): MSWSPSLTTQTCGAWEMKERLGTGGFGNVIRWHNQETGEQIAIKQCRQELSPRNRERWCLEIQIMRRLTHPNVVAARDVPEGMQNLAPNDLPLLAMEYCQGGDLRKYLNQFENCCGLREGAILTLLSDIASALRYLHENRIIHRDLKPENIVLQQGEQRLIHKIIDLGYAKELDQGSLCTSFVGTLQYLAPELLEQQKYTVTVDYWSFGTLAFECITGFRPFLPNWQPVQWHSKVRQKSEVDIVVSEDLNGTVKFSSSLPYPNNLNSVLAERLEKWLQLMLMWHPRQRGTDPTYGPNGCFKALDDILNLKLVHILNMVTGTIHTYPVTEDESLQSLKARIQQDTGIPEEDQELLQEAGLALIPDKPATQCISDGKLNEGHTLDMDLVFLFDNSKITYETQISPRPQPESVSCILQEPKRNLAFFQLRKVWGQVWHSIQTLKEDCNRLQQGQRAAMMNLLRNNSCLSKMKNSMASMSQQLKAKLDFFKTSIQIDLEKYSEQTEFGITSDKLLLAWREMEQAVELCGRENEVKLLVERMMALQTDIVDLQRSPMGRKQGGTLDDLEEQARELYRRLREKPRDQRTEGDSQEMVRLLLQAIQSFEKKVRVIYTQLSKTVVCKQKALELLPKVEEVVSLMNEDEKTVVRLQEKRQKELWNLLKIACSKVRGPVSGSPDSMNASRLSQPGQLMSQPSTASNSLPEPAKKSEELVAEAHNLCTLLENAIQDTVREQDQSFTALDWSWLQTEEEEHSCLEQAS
# experimental.protocol: Kinase panel study
# Type: biochemical
# test.settings: IKBKB (IKK beta); compound at 10µM; read-out: % of Inhibition
measurement.label: inhibition at 10 µM (%)

See these solved cases before continuing.
COc1ccc2nc3c(cc2c1)c(N)nn3C(=O)c1cccc(N(C)C)c1 [MW05-E2]; 12
O=c1c2cnccc2c2nccc3c4cc(O)ccc4n1c32; 16

[1] O=c1c2cc(O)ccc2c2nccc3c4cc(O)ccc4n1c32
[2] COc1ccc2c(c1)c1ccnc3c4ccnc(OC)c4c(=O)n2c13
[3] COc1ccc2c(c1)c1ccnc3c4nc(OC)ccc4c(=O)n2c13
Lookup: Sort these compounds on inhibition at 10 µM so the largest reading comes first. Your reply should list the labels following the order given in the request.
Found: 1, 2, 3
(1: 31%, 2: 16%, 3: 10%)

====

# target.of.assay: PIK3CA/PIK3R3 (p11 0 alpha/p55 gamma) (Homo sapiens, UniProt P42336)
# Construct: purchased Thermo Fisher Scientific
# experimental.protocol: Kinase panel study
# Assay type: biochemical
# test.settings: PIK3CA/PIK3R3; compound at 10µM; read-out: % of Inhibition
measurement.label: inhibition at 10 µM (%)

See these solved cases before continuing.
O=c1c2cc(O)ccc2c2nccc3c4cc(O)ccc4n1c32 [MW01-E10]; 90
COc1ccc2c(c1)c1ccnc3c4nc(OC)ccc4c(=O)n2c13 [MW01-E6]; 10

[A] COc1ccc2c(c1)c1ccnc3c4ccnc(OC)c4c(=O)n2c13 [MW01-E14]
[B] COc1ccc2nc3c(cc2c1)c(N)nn3C(=O)c1cccc(N(C)C)c1 [MW05-E2]
[C] O=c1c2cnccc2c2nccc3c4cc(O)ccc4n1c32 [MW01-E18]
Lookup: Sort these molecules on inhibition at 10 µM so the largest reading comes first. Your reply should list the labels following the order given in the request.
Found: C, A, B

====

# target.of.assay: DNA-PK (Homo sapiens, UniProt P78527)
# Construct: purchased Thermo Fisher Scientific
# experimental.protocol: Kinase panel study
# Assay type: biochemical
# test.settings: DNA-PK; compound at 10µM; read-out: % of Inhibition
measurement.label: inhibition at 10 µM (%)

[1] COc1ccc2c(c1)c1ccnc3c4ccnc(OC)c4c(=O)n2c13
[2] COc1ccc2c(c1)c1ccnc3c4nc(OC)ccc4c(=O)n2c13
[3] O=c1c2cc(O)ccc2c2nccc3c4cc(O)ccc4n1c32
Lookup: Using measured inhibition at 10 µM, arrange the compounds from above in descending sequence. Your reply should list the labels following the order given in the request.
Found: 3, 1, 2
(3: 62%, 1: 43%, 2: 9%)

[I] COc1ccc2nc3c(cc2c1)c(N)nn3C(=O)c1cccc(N(C)C)c1 [MW05-E2]
[II] O=c1c2cnccc2c2nccc3c4cc(O)ccc4n1c32
Lookup: Sort I and II by inhibition at 10 µM descending and give the first. Please identify the chosen entry by its label.
Found: II

====

# target.of.assay: BLK (Homo sapiens, UniProt P51451)
# Construct: purchased Thermo Fisher Scientific
# Sequence (P51451 whole entry): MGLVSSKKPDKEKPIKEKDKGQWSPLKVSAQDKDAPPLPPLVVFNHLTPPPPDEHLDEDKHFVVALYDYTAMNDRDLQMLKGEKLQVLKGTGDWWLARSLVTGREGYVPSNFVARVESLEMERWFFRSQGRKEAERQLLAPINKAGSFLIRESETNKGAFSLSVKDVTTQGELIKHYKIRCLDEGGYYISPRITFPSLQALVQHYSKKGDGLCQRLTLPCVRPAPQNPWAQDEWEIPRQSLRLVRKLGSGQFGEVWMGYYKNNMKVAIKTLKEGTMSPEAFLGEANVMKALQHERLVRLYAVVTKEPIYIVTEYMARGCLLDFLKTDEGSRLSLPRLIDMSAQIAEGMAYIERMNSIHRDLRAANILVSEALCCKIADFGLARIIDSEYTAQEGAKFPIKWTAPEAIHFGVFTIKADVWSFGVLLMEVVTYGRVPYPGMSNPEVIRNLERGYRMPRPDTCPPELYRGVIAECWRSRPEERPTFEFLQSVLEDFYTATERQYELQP
# experimental.protocol: Kinase panel study
# Format: biochemical
# test.settings: BLK; compound at 10µM; read-out: % of Inhibition
measurement.label: inhibition at 10 µM (%)

See these solved cases before continuing.
COc1ccc2c(c1)c1ccnc3c4nc(OC)ccc4c(=O)n2c13; 23
COc1ccc2nc3c(cc2c1)c(N)nn3C(=O)c1cccc(N(C)C)c1 [MW05-E2]; 10

[1] O=c1c2cnccc2c2nccc3c4cc(O)ccc4n1c32
[2] COc1ccc2c(c1)c1ccnc3c4ccnc(OC)c4c(=O)n2c13
[3] O=c1c2cc(O)ccc2c2nccc3c4cc(O)ccc4n1c32
Lookup: Please order the records by their reported inhibition at 10 µM, lowest number first. Your reply should list the labels following the order given in the request.
Found: 2, 1, 3
(2: 9%, 1: 23%, 3: 42%)

====

# target.of.assay: FRAP1 (mTOR) (Homo sapiens)
measurement.label: IC50

Lookup: Entry COc1ccc2c(c1OC)c(=O)n1c3ccc(O)cc3c3ccnc2c31 [MW01] : reported IC50 = ?
Found: ≥ 2000 nM

====

# target.of.assay: IRAK1 (Homo sapiens)
# Construct: purchased Thermo Fisher Scientific
# Sequence (P51617 whole entry): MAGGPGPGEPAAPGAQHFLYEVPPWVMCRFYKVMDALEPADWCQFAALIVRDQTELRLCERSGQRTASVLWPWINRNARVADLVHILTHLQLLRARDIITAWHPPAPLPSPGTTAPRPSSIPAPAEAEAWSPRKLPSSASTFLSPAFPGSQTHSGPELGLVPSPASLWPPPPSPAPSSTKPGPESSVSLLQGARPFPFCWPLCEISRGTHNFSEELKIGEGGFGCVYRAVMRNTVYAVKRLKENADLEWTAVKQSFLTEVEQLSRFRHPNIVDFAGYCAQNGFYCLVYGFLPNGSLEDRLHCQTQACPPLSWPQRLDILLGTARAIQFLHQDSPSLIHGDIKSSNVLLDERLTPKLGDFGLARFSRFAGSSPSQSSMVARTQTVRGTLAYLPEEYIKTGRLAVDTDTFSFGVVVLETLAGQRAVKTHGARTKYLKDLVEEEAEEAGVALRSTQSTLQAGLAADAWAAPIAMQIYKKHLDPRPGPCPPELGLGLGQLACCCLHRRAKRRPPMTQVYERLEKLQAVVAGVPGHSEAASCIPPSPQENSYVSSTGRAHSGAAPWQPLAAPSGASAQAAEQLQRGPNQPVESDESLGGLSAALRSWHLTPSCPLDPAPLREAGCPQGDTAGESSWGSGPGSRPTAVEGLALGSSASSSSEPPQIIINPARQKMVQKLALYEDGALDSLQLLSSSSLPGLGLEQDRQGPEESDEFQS
# experimental.protocol: Kinase panel study
# Type: biochemical
# test.settings: IRAK1; compound at 10µM; read-out: % of Inhibition
measurement.label: inhibition at 10 µM (%)

See these solved cases before continuing.
O=c1c2cc(O)ccc2c2nccc3c4cc(O)ccc4n1c32; 71
COc1ccc2c(c1)c1ccnc3c4nc(OC)ccc4c(=O)n2c13; 56
COc1ccc2nc3c(cc2c1)c(N)nn3C(=O)c1cccc(N(C)C)c1 [MW05-E2]; 2

[A] COc1ccc2c(c1)c1ccnc3c4ccnc(OC)c4c(=O)n2c13
[B] O=c1c2cnccc2c2nccc3c4cc(O)ccc4n1c32
Lookup: Please choose the item with the lower inhibition at 10 µM value from this pair: A and B Please identify the chosen entry by its label.
Found: A
(A: 9%, B: 69%)

====

# target.of.assay: PIK3CA/PIK3R1 (p11 0 alpha/p85 alpha) (Homo sapiens)
# Construct: purchased Thermo Fisher Scientific
# experimental.protocol: Kinase panel study
# Assay type: biochemical
# test.settings: PIK3CA/PIK3R1; compound at 10µM; read-out: % of Inhibition
measurement.label: inhibition at 10 µM (%)

See these solved cases before continuing.
O=c1c2cc(O)ccc2c2nccc3c4cc(O)ccc4n1c32; 90
COc1ccc2c(c1)c1ccnc3c4nc(OC)ccc4c(=O)n2c13; 38
O=c1c2cnccc2c2nccc3c4cc(O)ccc4n1c32; 90

[A] COc1ccc2c(c1)c1ccnc3c4ccnc(OC)c4c(=O)n2c13
[B] COc1ccc2nc3c(cc2c1)c(N)nn3C(=O)c1cccc(N(C)C)c1 [MW05-E2]
Lookup: Please choose the item with the lower inhibition at 10 µM value from this pair: A and B Please identify the chosen entry by its label.
Found: B
(B: 26%, A: 80%)

====

# target.of.assay: PIK3CB/PIK3R1 (p110 beta/p85 alpha) (Homo sapiens)
# Construct: purchased Thermo Fisher Scientific
# Sequence (P42338 whole entry): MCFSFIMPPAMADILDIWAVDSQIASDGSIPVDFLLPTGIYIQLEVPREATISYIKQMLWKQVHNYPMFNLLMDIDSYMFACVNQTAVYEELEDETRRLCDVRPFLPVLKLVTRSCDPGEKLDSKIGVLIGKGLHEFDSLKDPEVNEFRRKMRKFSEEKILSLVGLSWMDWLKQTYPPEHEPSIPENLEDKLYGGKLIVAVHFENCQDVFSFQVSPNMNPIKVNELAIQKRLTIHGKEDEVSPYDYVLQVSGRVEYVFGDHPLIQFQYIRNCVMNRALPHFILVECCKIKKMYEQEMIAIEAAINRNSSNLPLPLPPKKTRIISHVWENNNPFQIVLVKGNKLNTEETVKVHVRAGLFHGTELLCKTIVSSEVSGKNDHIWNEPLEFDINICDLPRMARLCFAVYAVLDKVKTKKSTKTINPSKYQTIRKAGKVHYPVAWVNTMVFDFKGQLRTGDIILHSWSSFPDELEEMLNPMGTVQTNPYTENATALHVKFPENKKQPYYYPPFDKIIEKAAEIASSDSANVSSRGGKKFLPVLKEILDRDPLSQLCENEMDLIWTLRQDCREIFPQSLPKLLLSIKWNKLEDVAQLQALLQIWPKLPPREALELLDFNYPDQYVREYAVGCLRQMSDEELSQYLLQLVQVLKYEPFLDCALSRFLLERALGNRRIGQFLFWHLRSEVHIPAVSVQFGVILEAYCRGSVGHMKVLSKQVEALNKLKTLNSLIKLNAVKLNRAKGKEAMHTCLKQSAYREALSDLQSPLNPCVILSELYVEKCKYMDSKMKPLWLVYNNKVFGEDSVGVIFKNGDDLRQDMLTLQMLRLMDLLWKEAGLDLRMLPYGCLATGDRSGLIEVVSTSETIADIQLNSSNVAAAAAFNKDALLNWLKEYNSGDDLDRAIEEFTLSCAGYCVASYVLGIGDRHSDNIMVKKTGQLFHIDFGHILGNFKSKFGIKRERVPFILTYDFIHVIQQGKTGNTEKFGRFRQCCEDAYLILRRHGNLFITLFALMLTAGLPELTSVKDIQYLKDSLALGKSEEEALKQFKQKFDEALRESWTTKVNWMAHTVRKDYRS
# Sequence (P27986 whole entry partner): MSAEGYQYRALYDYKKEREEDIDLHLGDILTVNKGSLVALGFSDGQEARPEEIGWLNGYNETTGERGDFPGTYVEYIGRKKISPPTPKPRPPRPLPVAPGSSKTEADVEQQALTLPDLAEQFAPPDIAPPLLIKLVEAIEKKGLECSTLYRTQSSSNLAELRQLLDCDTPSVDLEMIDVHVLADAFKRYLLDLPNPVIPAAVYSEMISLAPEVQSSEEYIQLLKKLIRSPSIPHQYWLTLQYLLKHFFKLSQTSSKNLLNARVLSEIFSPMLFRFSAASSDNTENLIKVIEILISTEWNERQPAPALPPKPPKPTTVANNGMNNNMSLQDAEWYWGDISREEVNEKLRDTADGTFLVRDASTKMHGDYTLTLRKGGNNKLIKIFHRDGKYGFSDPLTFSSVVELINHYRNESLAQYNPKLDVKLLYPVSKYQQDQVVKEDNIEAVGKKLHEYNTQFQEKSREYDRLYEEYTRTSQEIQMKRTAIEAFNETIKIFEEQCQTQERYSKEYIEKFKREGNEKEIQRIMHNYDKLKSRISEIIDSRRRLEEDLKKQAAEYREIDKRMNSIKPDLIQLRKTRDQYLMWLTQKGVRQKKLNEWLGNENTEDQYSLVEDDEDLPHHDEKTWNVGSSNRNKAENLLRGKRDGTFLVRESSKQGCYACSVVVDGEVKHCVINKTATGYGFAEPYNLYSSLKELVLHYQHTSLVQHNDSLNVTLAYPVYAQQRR
# experimental.protocol: Kinase panel study
# Type: biochemical
# test.settings: PIK3CB/PIK3R1; compound at 10µM; read-out: % of Inhibition
# Protocol: The Kinase panel study was entirely provided by Thermo Fisher Scientific using the two lead compounds MW01 and MW05 as well as their derivatives (MW01-E06, MW01-E10, MW01-E14, MW01-E18, MW05-E2, MW05-E3, MW05-E9 and MW05-E10. The experiment was performed using the ZLyte or Adapta protocol according to manufacturer standard operating procedures. […]
measurement.label: inhibition at 10 µM (%)

COc1ccc2c(c1)c1ccnc3c4ccnc(OC)c4c(=O)n2c13; 26
O=c1c2cc(O)ccc2c2nccc3c4cc(O)ccc4n1c32; 34
O=c1c2cnccc2c2nccc3c4cc(O)ccc4n1c32; 62

[P] COc1ccc2c(c1)c1ccnc3c4nc(OC)ccc4c(=O)n2c13
[Q] COc1ccc2nc3c(cc2c1)c(N)nn3C(=O)c1cccc(N(C)C)c1 [MW05-E2]
Lookup: Sort P and Q by inhibition at 10 µM descending and give the first. Please identify the chosen entry by its label.
Found: P
(P: 13%, Q: 1%)

====

# target.of.assay: PIP5K1B (Homo sapiens, UniProt O14986)
# Construct: purchased Thermo Fisher Scientific
# Sequence (O14986 whole entry): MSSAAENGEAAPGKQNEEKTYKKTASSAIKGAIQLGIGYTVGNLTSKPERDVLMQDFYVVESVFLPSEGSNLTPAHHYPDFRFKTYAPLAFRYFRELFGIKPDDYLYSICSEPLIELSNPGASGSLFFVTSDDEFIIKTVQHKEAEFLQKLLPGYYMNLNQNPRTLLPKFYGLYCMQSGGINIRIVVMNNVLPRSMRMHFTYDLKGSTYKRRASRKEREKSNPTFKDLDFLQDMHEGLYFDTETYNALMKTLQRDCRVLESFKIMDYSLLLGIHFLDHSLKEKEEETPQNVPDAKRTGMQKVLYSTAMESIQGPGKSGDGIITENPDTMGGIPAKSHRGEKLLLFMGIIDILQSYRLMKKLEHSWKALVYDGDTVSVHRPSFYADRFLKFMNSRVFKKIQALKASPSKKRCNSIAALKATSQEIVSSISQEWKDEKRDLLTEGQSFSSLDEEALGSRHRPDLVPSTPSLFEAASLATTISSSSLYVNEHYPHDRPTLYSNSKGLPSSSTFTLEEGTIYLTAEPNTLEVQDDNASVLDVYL
# experimental.protocol: Kinase panel study
# Type: biochemical
# test.settings: PIP5K1B; compound at 10µM; read-out: % of Inhibition
# Procedure: The Kinase panel study was entirely provided by Thermo Fisher Scientific using the two lead compounds MW01 and MW05 as well as their derivatives (MW01-E06, MW01-E10, MW01-E14, MW01-E18, MW05-E2, MW05-E3, MW05-E9 and MW05-E10. The experiment was performed using the ZLyte or Adapta protocol according to manufacturer standard operating procedures. […]
measurement.label: inhibition at 10 µM (%)

COc1ccc2c(c1)c1ccnc3c4nc(OC)ccc4c(=O)n2c13; 14

[I] COc1ccc2nc3c(cc2c1)c(N)nn3C(=O)c1cccc(N(C)C)c1 [MW05-E2]
[II] O=c1c2cnccc2c2nccc3c4cc(O)ccc4n1c32
[III] COc1ccc2c(c1)c1ccnc3c4ccnc(OC)c4c(=O)n2c13
[IV] O=c1c2cc(O)ccc2c2nccc3c4cc(O)ccc4n1c32
Lookup: Please order the records by their reported inhibition at 10 µM, lowest number first. Your reply should list the labels following the order given in the request.
Found: I, II, IV, III
(I: -12%, II: -3%, IV: 5%, III: 26%)

====

# target.of.assay: AKT1 (PKB alpha) (Homo sapiens)
# Construct: purchased Thermo Fisher Scientific
# Sequence (P31749 whole entry): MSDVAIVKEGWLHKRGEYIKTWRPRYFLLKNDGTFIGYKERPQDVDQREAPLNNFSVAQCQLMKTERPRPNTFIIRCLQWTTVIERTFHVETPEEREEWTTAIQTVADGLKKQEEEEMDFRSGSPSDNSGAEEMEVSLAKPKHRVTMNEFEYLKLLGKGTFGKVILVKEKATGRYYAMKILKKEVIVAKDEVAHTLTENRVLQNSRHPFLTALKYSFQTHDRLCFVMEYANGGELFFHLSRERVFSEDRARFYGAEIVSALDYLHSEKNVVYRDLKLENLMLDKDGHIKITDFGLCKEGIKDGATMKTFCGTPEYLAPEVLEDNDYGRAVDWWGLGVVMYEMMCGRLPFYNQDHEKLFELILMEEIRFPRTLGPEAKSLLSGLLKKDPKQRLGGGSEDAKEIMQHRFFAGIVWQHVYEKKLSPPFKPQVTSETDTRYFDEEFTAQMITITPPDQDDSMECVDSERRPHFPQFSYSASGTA
# experimental.protocol: Kinase panel study
# Assay type: biochemical
# test.settings: AKT1 (PKB alpha); compound at 10µM; read-out: % of Inhibition
measurement.label: inhibition at 10 µM (%)

[A] O=c1c2cnccc2c2nccc3c4cc(O)ccc4n1c32 [MW01-E18]
[B] COc1ccc2c(c1)c1ccnc3c4nc(OC)ccc4c(=O)n2c13 [MW01-E6]
Lookup: Sort A and B by inhibition at 10 µM descending and give the first. Please identify the chosen entry by its label.
Found: A

[I] O=c1c2cc(O)ccc2c2nccc3c4cc(O)ccc4n1c32 [MW01-E10]
[II] COc1ccc2nc3c(cc2c1)c(N)nn3C(=O)c1cccc(N(C)C)c1 [MW05-E2]
Lookup: Sort I and II by inhibition at 10 µM descending and give the first. Please identify the chosen entry by its label.
Found: I
